Provide the reported protein stability index of each item.
B1: SPDEF (parent)
chain: FQELAGKELCAMSEEQFRQRSPLG

- Variants of: B1
- Method: protein stability index of a GFP-peptide fusion (GPS, HEK-293T) (PSI 1-6); higher = more stable;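 also: lentivirally expressed fusions sorted by FACS into six bins by GFP to DsRed ratio, PSI derived from sequencing read proportions per bin multiplied by bin number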
- Protocol Conditions: c terminus: a fixed tail appended
Reply with just the number.

Quick one: give measured protein stability index for A11M
2.35

Quick one: give measured protein stability index for L4T
3.94

Quick one: give measured protein stability index for M12F
2.47

Quick one: give measured protein stability index for L4V
3.85

Quick one: give measured protein stability index for Q2M
2.65

Quick one: give measured protein stability index for K7Q
4

Quick one: give measured protein stability index for A5Q
3.32

Quick one: give measured protein stability index for L9Q
4.25

Quick one: give measured protein stability index for E3S
2.34

Quick one: give measured protein stability index for E15G
2.3

Quick one: give measured protein stability index for A11E
3.49

Quick one: give measured protein stability index for L23V
3.09

Quick one: give measured protein stability index for L23P
3.25

Quick one: give measured protein stability index for E8D
2.79

Quick one: give measured protein stability index for M12G
3.04

Quick one: give measured protein stability index for R20I
2.86

Quick one: give measured protein stability index for S21E
2.58

Quick one: give measured protein stability index for L23T
2.77

Quick one: give measured protein stability index for F1A
4.29

Quick one: give measured protein stability index for R18L
2.76

Quick one: give measured protein stability index for Q19E
4.17

Quick one: give measured protein stability index for K7E
3.66

Quick one: give measured protein stability index for G24N
2.72

Quick one: give measured protein stability index for C10R
3.12

Quick one: give measured protein stability index for R18V
2.8

Quick one: give measured protein stability index for L4S
4.01

Quick one: give measured protein stability index for S13A
3.62

Quick one: give measured protein stability index for Q2H
2.57

Quick one: give measured protein stability index for C10P
4.32

Quick one: give measured protein stability index for K7N
2.84

Quick one: give measured protein stability index for F17S
3.14

Quick one: give measured protein stability index for G6W
2.65

Quick one: give measured protein stability index for S21W
2.4

Quick one: give measured protein stability index for F17A
3.37

Quick one: give measured protein stability index for E3P
2.64

Quick one: give measured protein stability index for M12R
3.34

Quick one: give measured protein stability index for E3H
3.36

Quick one: give measured protein stability index for F17C
3.14

Quick one: give measured protein stability index for L9W
2.8

Quick one: give measured protein stability index for C10Q
3.46

Quick one: give measured protein stability index for M12N
3.3

Quick one: give measured protein stability index for F1G
4.57

Quick one: give measured protein stability index for Q19I
2.39

Quick one: give measured protein stability index for F17P
3.28

Quick one: give measured protein stability index for A5R
2.17

Quick one: give measured protein stability index for R20M
2.1

Quick one: give measured protein stability index for R18M
2.51

Quick one: give measured protein stability index for A11T
2.31

Quick one: give measured protein stability index for Q2S
2.55

Quick one: give measured protein stability index for R20K
2.51

Quick one: give measured protein stability index for E14G
2.21

Quick one: give measured protein stability index for K7T
3.38

Quick one: give measured protein stability index for F17Q
3.34

Quick one: give measured protein stability index for L23F
2.78

Quick one: give measured protein stability index for P22H
3.45

Quick one: give measured protein stability index for E3Q
3.45

Quick one: give measured protein stability index for F1Q
4.93

Quick one: give measured protein stability index for F17I
3.22

Quick one: give measured protein stability index for E15D
2.74

Quick one: give measured protein stability index for E15N
2.13

Quick one: give measured protein stability index for S13W
2.08

Quick one: give measured protein stability index for G24C
2.49

Quick one: give measured protein stability index for K7R
2.3

Quick one: give measured protein stability index for Q2V
2.73

Quick one: give measured protein stability index for S13T
2.69

Quick one: give measured protein stability index for F17M
2.66

Quick one: give measured protein stability index for L4M
2.6

Quick one: give measured protein stability index for A5E
3.83

Quick one: give measured protein stability index for C10I
3.34

Quick one: give measured protein stability index for Q19S
2.45

Quick one: give measured protein stability index for M12Y
2.88

Quick one: give measured protein stability index for Q16V
2.28

Quick one: give measured protein stability index for E8T
1.99

Quick one: give measured protein stability index for G6V
1.68

Quick one: give measured protein stability index for S13F
2.15

Quick one: give measured protein stability index for Q19G
2.53

Quick one: give measured protein stability index for S13Y
2.4

Quick one: give measured protein stability index for G24W
1.93

Quick one: give measured protein stability index for G6R
2.58

Quick one: give measured protein stability index for E3R
3.33

Quick one: give measured protein stability index for E15S
2.21

Quick one: give measured protein stability index for R18T
2.83

Quick one: give measured protein stability index for L9Y
3.25

Quick one: give measured protein stability index for Q19R
2.4

Quick one: give measured protein stability index for C10S
3.4

Quick one: give measured protein stability index for R20N
3.04

Quick one: give measured protein stability index for F1Y
3.02

Quick one: give measured protein stability index for R18Y
2.29

Quick one: give measured protein stability index for R20G
2.49

Quick one: give measured protein stability index for M12H
2.9

Quick one: give measured protein stability index for Q2F
3.35

Hey, just so you know, these numbers are from the supplement of paper PMC10567573.
